From: patent US9809604B2

# assayTarget: DGAT1 (Homo sapiens, UniProt O75907)
# Sequence (O75907 1-488): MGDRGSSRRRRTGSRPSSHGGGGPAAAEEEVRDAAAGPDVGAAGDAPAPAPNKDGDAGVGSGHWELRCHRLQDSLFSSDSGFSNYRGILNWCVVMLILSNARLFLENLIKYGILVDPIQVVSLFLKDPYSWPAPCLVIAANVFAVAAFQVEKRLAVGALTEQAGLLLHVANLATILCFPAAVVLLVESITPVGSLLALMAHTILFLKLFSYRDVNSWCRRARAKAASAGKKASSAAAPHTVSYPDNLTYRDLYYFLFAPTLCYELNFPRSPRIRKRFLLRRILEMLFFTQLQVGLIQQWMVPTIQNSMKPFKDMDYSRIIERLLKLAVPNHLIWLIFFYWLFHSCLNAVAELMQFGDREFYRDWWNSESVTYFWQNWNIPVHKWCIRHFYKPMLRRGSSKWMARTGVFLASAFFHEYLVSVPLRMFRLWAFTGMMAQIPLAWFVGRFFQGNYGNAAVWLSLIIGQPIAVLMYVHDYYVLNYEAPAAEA
# measurementDescription: Human DGAT1 IC50 enzyme assay (Flashplate, 14C-labeled acyl-CoA)
# Assay type: biochemical
# Design: made in house
# experimentalParameters: average of first and second; read-out: hDGAT1 IC50(nM) Average
Documented IC50 across a set of molecules
measuredProperty: IC50 (nM)

>>> observedresult("Cc1cc(N2CCOc3ncnc(N)c3C2=O)cc(C)c1-c1cn(CCC(=O)O)nc1C")
45.6
>>> observedresult("Nc1ncnc2c1C(=O)N(c1ccc(-c3cnn(CCC(=O)O)c3)c(Cl)c1)CCO2")
25.8
>>> observedresult("Cc1cc(N2CCOc3ncnc(N)c3C2=O)cc(C)c1-c1c(C)nn(CC(F)(F)F)c1C")
69.4
>>> observedresult("CC(C)Cn1cc(-c2ccc(N3C[C@@H](C)Oc4ncnc(N)c4C3=O)cc2Cl)cn1")
16
>>> observedresult("Cc1nn(CCC(=O)O)cc1-c1ccc(N2CCOc3ncnc(N)c3C2=O)cc1Cl")
54.8
>>> observedresult("CC(C)(O)Cn1cc(-c2ccc(N3CCOc4ncnc(N)c4C3=O)cc2Cl)cn1")
59.6
>>> observedresult("CCn1cc(-c2ccc(N3CCOc4ncnc(N)c4C3=O)cc2Cl)cn1")
52.1
>>> observedresult("O=C(O)C[C@H]1CC[C@H](c2ccc(-c3ccc(Nc4ccc(C(F)(F)F)nc4)cn3)cc2)CC1 [Pradigastat, reference compound]")
49
>>> observedresult("Cc1nn(CC(=O)O)cc1-c1ccc(N2CCOc3ncnc(N)c3C2=O)cc1Cl")
29.3
>>> observedresult("CCC(C(=O)O)n1cc(-c2ccc(N3CCOc4ncnc(N)c4C3=O)cc2C)cn1 (centres unmarked)")
57.6
>>> observedresult("Nc1ncnc2c1C(=O)N(c1ccc(N3CCN(CCC(=O)O)C3=O)c(Cl)c1)CCO2")
31.5
>>> observedresult("Nc1ncnc2c1C(=O)N(c1ccc(N3CCN(CC(=O)O)C3=O)c(Cl)c1)CCO2")
48.1
>>> observedresult("CC(C)(Cn1cc(-c2ccc(N3CCOc4ncnc(N)c4C3=O)cc2Cl)cn1)C(=O)N1CCCC1")
61.7
>>> observedresult("CCc1cc(N2CCOc3ncnc(N)c3C2=O)ccc1N1CCN(CC(=O)O)C1=O")
60.3
>>> observedresult("Nc1ncnc2c1C(=O)N(c1ccc3c(c1)CCC(OCC(F)(F)F)C3)CCO2 (single isomer, unassigned; peak1) [Compound 105 (peak1)]")
73.3
>>> observedresult("COC(C)(C)Cn1cc(-c2ccc(N3CCOc4ncnc(N)c4C3=O)cc2Cl)cn1")
59.1
>>> observedresult("Nc1ncnc2c1C(=O)N(c1ccc(N3CCN(CC(=O)O)C3=O)c(OC(F)(F)F)c1)CCO2")
36.9
>>> observedresult("CCC(C(=O)O)n1cc(-c2ccc(N3CCOc4ncnc(N)c4C3=O)cc2Cl)cn1 (centres unmarked)")
37.8
>>> observedresult("CC(C)(Cn1cc(-c2ccc(N3CCOc4ncnc(N)c4C3=O)cc2Cl)cn1)C(=O)O")
30.6
>>> observedresult("Nc1ncnc2c1C(=O)N(c1ccc(-c3cnn(CC(=O)O)c3)c(Cl)c1)CCO2")
51.8
>>> observedresult("Cc1cc(N2CCOc3ncnc(N)c3C2=O)cc(C)c1-c1cn(CC2(C)COC2)nc1C")
87
>>> observedresult("Nc1ncnc2c1C(=O)N(c1ccc(-c3cnn(CCC(=O)O)c3)c(F)c1)CCO2")
79.6
>>> observedresult("Nc1ncnc2c1C(=O)N(c1ccc(N3CCN(CC(=O)O)C3=O)c(F)c1)CCO2")
52.9
>>> observedresult("Cc1cc(N2CCOc3ncnc(N)c3C2=O)ccc1N1CCN(CC(=O)O)C1=O")
65.2
>>> observedresult("CN(C)C(=O)C(C)(C)Cn1cc(-c2ccc(N3CCOc4ncnc(N)c4C3=O)cc2Cl)cn1")
80.7
>>> observedresult("Cc1nn(CCC(=O)O)c(C)c1-c1ccc(N2CCOc3ncnc(N)c3C2=O)cc1Cl")
50.7
>>> observedresult("Cc1cc(N2CCOc3ncnc(N)c3C2=O)cc(C)c1-c1cnn(CCC(=O)O)c1")
20.4
>>> observedresult("Cc1nn(CCC(=O)O)c(C)c1-c1ccc(N2CCOc3ncnc(N)c3C2=O)cc1")
23.5
>>> observedresult("CCc1cc(N2CCOc3ncnc(N)c3C2=O)cc(C)c1N1CCN(CC(=O)O)C1=O")
39.5
>>> observedresult("Nc1ncnc2c1C(=O)N(c1ccc(-c3cn(CC(=O)O)nc3C(F)(F)F)cc1)CCO2")
98.4
>>> observedresult("CC(C)CN1CCN(c2ccc(N3CCOc4ncnc(N)c4C3=O)cc2Cl)C1=O")
35.2
>>> observedresult("Nc1ncnc2c1C(=O)N(c1ccc(N3CCN(CC(F)(F)F)C3=O)c(Cl)c1)CCO2")
38.9
